- assayTarget: T1, Macaca fascicularis IL2Rγ extracellular domain expressed with a C-terminal myc-myc-hexahistidine tag (Macaca fascicularis)
- T1 construct: also called mfIL-2Rg-MMH; mfIL-2RG-MMH
- T1 chain: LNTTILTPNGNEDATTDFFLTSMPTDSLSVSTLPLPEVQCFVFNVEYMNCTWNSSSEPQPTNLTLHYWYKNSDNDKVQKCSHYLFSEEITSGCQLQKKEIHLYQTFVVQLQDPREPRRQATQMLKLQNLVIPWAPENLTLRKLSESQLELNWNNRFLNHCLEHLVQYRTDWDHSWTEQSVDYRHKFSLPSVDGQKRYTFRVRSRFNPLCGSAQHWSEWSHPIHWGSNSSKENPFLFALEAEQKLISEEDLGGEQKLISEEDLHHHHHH
- experiment: SPR Biacore 4000, mAb captured by anti-hFc, HBS-ET, 25C
testReadout: pKd
Reminder that pKd is minus the log10 of a molar concentration.

Measured pKd of H4H12889P (antibody, human IgG4 S228P, kappa, V domains shown, anti-IL2Rγ monoclonal antibody expressed with human IgG4 Fc; also called REGN7257) VH: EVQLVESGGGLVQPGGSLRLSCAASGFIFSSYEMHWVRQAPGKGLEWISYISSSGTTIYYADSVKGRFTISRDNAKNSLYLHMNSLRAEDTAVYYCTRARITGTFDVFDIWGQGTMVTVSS VL: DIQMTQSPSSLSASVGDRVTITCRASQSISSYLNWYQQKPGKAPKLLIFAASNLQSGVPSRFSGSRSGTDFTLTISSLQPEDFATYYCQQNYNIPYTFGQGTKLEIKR : 8.76

Measured pKd of H4H12890P (antibody, human IgG4 S228P, kappa, V domains shown, anti-IL2Rγ monoclonal antibody expressed with human IgG4 Fc) VH: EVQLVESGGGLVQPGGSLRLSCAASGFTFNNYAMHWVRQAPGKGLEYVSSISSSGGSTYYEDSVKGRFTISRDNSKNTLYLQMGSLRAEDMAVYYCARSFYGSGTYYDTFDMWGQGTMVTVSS VL: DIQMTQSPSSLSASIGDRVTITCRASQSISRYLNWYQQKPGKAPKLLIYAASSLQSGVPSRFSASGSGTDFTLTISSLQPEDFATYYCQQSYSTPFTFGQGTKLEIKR : 8.29

Measured pKd of H4H13541P (antibody, human IgG4 S228P, kappa, V domains shown, anti-IL2Rγ monoclonal antibody expressed with human IgG4 Fc) VH: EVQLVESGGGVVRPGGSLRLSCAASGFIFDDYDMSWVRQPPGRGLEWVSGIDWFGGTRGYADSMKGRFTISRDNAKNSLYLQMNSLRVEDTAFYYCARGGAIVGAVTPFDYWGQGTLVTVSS VL: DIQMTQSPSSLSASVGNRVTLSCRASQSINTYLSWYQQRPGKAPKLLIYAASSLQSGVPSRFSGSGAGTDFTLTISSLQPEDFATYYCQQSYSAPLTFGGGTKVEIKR : 8.73

Measured pKd of H4H12858P (antibody, human IgG4 S228P, kappa, V domains shown, anti-IL2Rγ monoclonal antibody expressed with human IgG4 Fc; also called REGN9433) VH: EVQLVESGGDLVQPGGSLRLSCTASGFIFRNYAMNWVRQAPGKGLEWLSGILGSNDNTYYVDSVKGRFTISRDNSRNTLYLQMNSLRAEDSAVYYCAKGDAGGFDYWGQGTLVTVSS VL: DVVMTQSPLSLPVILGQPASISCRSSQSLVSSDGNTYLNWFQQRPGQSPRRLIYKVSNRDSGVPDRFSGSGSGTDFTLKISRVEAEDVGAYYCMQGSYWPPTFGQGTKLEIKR : 8.63

Measured pKd of H4H12874P (antibody, human IgG4 S228P, kappa, V domains shown, anti-IL2Rγ monoclonal antibody expressed with human IgG4 Fc) VH: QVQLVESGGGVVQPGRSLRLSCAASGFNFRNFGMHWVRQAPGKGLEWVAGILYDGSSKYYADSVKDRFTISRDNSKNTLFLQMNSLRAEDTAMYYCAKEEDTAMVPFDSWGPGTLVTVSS VL: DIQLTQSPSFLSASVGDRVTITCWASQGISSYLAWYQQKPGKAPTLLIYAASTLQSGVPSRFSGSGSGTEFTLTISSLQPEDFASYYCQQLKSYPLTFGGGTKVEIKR : 8.37
